# target: hGIPR (Homo sapiens)
# Sequence (P48546 22-466): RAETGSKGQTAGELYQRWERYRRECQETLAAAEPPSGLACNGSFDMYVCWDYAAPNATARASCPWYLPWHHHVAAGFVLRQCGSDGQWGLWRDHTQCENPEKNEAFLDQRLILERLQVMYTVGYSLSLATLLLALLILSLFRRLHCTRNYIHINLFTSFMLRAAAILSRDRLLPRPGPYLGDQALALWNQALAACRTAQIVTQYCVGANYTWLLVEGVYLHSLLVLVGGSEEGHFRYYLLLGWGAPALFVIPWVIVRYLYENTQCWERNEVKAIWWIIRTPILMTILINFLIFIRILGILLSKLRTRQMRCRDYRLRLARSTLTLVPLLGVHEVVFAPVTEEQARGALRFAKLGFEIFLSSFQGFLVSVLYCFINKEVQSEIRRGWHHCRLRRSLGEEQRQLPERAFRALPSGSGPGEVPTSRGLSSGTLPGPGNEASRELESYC
# testProtocol: Functional cAMP activation in the presence of 0.1% casein (no HSA);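 also: intracellular cAMP rise after 30 min at 37 °C read by HTRF against a standard curve, scaled between buffer alone (0%) and top control ligand concentration (100%), four-parameter fit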
# Type: cell-based
# assayConditions: in the presence of 0.1% casein (no HSA); geometric mean; read-out: Relative cAMP EC50, hGIPR
Starred links: 1 amine or outer side, 2 acyl side, 3 side chain; linkers in the order of their positions; H or OH if unused. Non-standard residues stand in square brackets, D forms with d. Groups on a side chain read outwards from the residue. *: point of attachment. C20 diacid = O=C(O)CCCCCCCCCCCCCCCCCCC(=O)*; C18 diacid = O=C(O)CCCCCCCCCCCCCCCCC(=O)*; αMePhe(2-F) = C[C@](N)(Cc1ccccc1F)C(=O)O; γGlu = O=C(O)[C@H](CCC(=O)[*:2])N[*:1]; αMe4Pal = C[C@](N)(Cc1ccncc1)C(=O)O; αMeY = C[C@](N)(Cc1ccc(O)cc1)C(=O)O; 4Pal = N[C@@H](Cc1ccncc1)C(=O)O; αMeL = CC(C)C[C@](C)(N)C(=O)O; αMeS = C[C@](N)(CO)C(=O)O; Orn = NCCC[C@H](N)C(=O)O; Dab = NCC[C@H](N)C(=O)O; AEEA = NCCOCCOCC(=O)O; Aib = CC(C)(N)C(=O)O
reportedProperty: pEC50
Kindly note that pEC50 refers to -log10 of the concentration in mol/L and answer with the value alone.

Entry H-Y[Aib]QGTFTSD[4Pal]SQ[αMeL]LDKK([Glu-Glu-γGlu-C18 diacid])AQ[αMe4Pal]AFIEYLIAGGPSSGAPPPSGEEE-NH2 [Example 1090] : pEC50 on hGIPR (Homo sapiens) = 9.57

Entry H-Y[Aib]QGTFTSDFS[Orn][αMeL]LDKK([AEEA-AEEA-γGlu-C18 diacid])AQ[Aib]AFIEYLLE[Aib]GESSGAPPPSGS-NH2 [Example 179] : pEC50 on hGIPR (Homo sapiens) = 9.98

Entry H-Y[Aib]QGTFTSD[4Pal]SK[αMeL]LDKK([AEEA-γGlu-C18 diacid])AQ[Aib]AFIEYLIA[Aib]GESSGEPPPSGS-NH2 [Example 287] : pEC50 on hGIPR (Homo sapiens) = 10.20

Entry H-Y[Aib]QGTFTSD[4Pal]S[Dab][αMeL]LD[Orn]K([γGlu-γGlu-C18 diacid])AQ[αMe4Pal]AFIE[αMe4Pal]LLAGGPSSGAPPPEGSEE-NH2 [Example 1055] : pEC50 on hGIPR (Homo sapiens) = 9.44

Entry H-Y[Aib]QGTFTSD[4Pal]S[Orn][αMeL]LDKK([γGlu-γGlu-C18 diacid])AQ[Aib]AFIE[αMeY]LIEGGPSSGAPPPSGS-NH2 [Example 941] : pEC50 on hGIPR (Homo sapiens) = 9.74

Entry H-Y[Aib]QGTFTSDFS[Orn][αMeL]LDKK([AEEA-γGlu-C20 diacid])AQ[Aib]AFIEYLLAGGPSSGAPPPSGSE-NH2 [Example 84] : pEC50 on hGIPR (Homo sapiens) = 9.68

Entry H-Y[Aib]QGTFTSD[4Pal]SQ[αMeL]LD[Orn]K([γGlu-γGlu-C18 diacid])AQ[αMe4Pal]QFIE[αMeY]LIEGGPSSGAPPPSGSEE-NH2 [Example 1046] : pEC50 on hGIPR (Homo sapiens) = 9.45

Entry H-Y[Aib]QGTFTSD[4Pal]SQ[αMeL]LD[Orn]K([Glu-γGlu-C18 diacid])AQ[αMe4Pal]AFIQ[αMeY]LIEGGPSSGAPPPSGSEEE-NH2 [Example 1077] : pEC50 on hGIPR (Homo sapiens) = 9.64

Entry H-Y[Aib]QGTFTSD[4Pal]S[Orn][αMeL]LDKK([AEEA-γGlu-C18 diacid])AQ[Aib]AFIEWLLEGGPSSGEPPPSGE-NH2 [Example 115] : pEC50 on hGIPR (Homo sapiens) = 9.34

Entry H-Y[Aib]QGT[αMePhe(2-F)]TSD[4Pal][αMeS]I[αMeL]LD[Orn]K([AEEA-γGlu-C18 diacid])AQ[αMe4Pal]EFI[dE][αMeY]LIEGGPSSGAPPPEGE-NH2 [Example 1148] : pEC50 on hGIPR (Homo sapiens) = 11.10

Entry H-Y[Aib]QGTFTSD[4Pal]SQ[αMeL]LD[Orn]K([γGlu-γGlu-C18 diacid])AQ[αMe4Pal]AFIE[αMeY]LIEGGPSSGAPPPSGSEE-NH2 [Example 1043] : pEC50 on hGIPR (Homo sapiens) = 9.55

====

# target: hGIPR (Homo sapiens)
# testProtocol: Functional cAMP activity in the presence of 1% HSA
# Type: cell-based
# assayConditions: read-out: cAMP Rel EC50, hGIPR
Starred links: 1 amine or outer side, 2 acyl side, 3 side chain; linkers in the order of their positions; H or OH if unused. Non-standard residues stand in square brackets, D forms with d. Groups on a side chain read outwards from the residue. *: point of attachment. C20 diacid = O=C(O)CCCCCCCCCCCCCCCCCCC(=O)*; C18 diacid = O=C(O)CCCCCCCCCCCCCCCCC(=O)*; αMePhe(2-F) = C[C@](N)(Cc1ccccc1F)C(=O)O; γGlu = O=C(O)[C@H](CCC(=O)[*:2])N[*:1]; NMeY = CN[C@@H](Cc1ccc(O)cc1)C(=O)O; αMe4Pal = C[C@](N)(Cc1ccncc1)C(=O)O; αMeY = C[C@](N)(Cc1ccc(O)cc1)C(=O)O; αMeF = C[C@](N)(Cc1ccccc1)C(=O)O; 4Pal = N[C@@H](Cc1ccncc1)C(=O)O; αMeL = CC(C)C[C@](C)(N)C(=O)O; αMeS = C[C@](N)(CO)C(=O)O; Orn = NCCC[C@H](N)C(=O)O; AEEA = NCCOCCOCC(=O)O; Aib = CC(C)(N)C(=O)O
Please respond with reported pEC50 for every item in the list.
Kindly note that pEC50 refers to -log10 of the concentration in mol/L and answer with the value alone.

Entry H-Y[Aib]QGTFTSD[4Pal]SK[αMeL]LDKK([AEEA-γGlu-C18 diacid])AQ[Aib]AFIEYLIE[Aib]GPSSGAPPPSGSEEE-NH2 [Example 903] : pEC50 on hGIPR (Homo sapiens) = 7.51

Entry H-Y[Aib]QGTFTSD[4Pal]SQ[αMeL]LDKK([Glu-γGlu-Glu-C18 diacid])AQ[αMe4Pal]AFIEYLIE[Aib]GPSSGAPPPSGS-NH2 [Example 896] : pEC50 on hGIPR (Homo sapiens) = 7.77

Entry H-Y[Aib]QGTFTSD[4Pal]S[Orn][αMeL]LDKK([γGlu-γGlu-C18 diacid])AQ[αMe4Pal]AFIE[αMeY]LIAGGPSSGAPPPEGS-NH2 [Example 1015] : pEC50 on hGIPR (Homo sapiens) = 8.04

Entry H-Y[Aib]QGTFTSDFS[Orn][αMeL]LDKK([AEEA-γGlu-C18 diacid])AQ[Aib]AFIEWLLEGGHSSGAPPPSGH-NH2 [Example 269] : pEC50 on hGIPR (Homo sapiens) = 7.66

Entry H-Y[Aib]QGTFTSD[4Pal]SK[αMeL]LDKK([AEEA-γGlu-C18 diacid])AQ[Aib]AFIEYLIA[Aib]GESSGAPPPSGS-NH2 [Example 285] : pEC50 on hGIPR (Homo sapiens) = 8.09

Entry H-Y[Aib]QGTFTSD[4Pal]SQ[αMeL]LDKK([dE-dE-γGlu-C18 diacid])AQ[αMe4Pal]AFIEYLIE[Aib]GPSSGAPPPSGS-NH2 [Example 921] : pEC50 on hGIPR (Homo sapiens) = 7.91

Entry H-Y[Aib]QGTFTSDFS[Orn][αMeL]LDKK([AEEA-γGlu-C18 diacid])AQ[Aib]AFIEYLLE[dA]GHSSGAPPPSGE-NH2 [Example 207] : pEC50 on hGIPR (Homo sapiens) = 7.82

Entry H-[NMeY][Aib]QGT[αMeF]TSDYSILLDKQAAK([AEEA-AEEA-γGlu-C20 diacid])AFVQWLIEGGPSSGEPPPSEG-NH2 [Example 302] : pEC50 on hGIPR (Homo sapiens) = 7.04

Entry H-Y[Aib]QGTFTSD[4Pal]SQ[αMeL]LDKK([AEEA-γGlu-C18 diacid])AQ[Aib]AFIE[αMeY]LIEGGPSSGAPPPEGS-NH2 [Example 853] : pEC50 on hGIPR (Homo sapiens) = 7.49

Entry H-Y[Aib]QGT[αMePhe(2-F)]TSD[4Pal]SI[αMeL]LD[Orn]K([AEEA-γGlu-C18 diacid])AQ[αMe4Pal][Orn]FI[dE]YLIEGGPSSGEPPPEGT-NH2 [Example 500] : pEC50 on hGIPR (Homo sapiens) = 8.41

Entry H-Y[Aib]QGT[αMePhe(2-F)]TSD[4Pal][αMeS]I[αMeL]LD[Orn]K([γGlu-γGlu-C18 diacid])AQ[Aib]QFI[dE][αMeY]LQEGGPSSGEPPPEGTGE-NH2 [Example 529] : pEC50 on hGIPR (Homo sapiens) = 8.86
